- Test system: PPARg:RXRa (NR concentration 180 nM, RXRa partner concentration 90 nM)
- experimental-protocol: PBM binding z-score (relative to random genomic background probes); higher = stronger binding; sequences stand for … in GC…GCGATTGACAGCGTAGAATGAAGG
Bucketed by reported PBM binding z-score, buckets being low: < 0.5; intermediate: ≥ 0.5 and < 2; high: ≥ 2

seq_string=AATACAGGGTCATCGTAGGCCAGATTACGCACAG group_label=high
seq_string=CCTAGTTGGTCAAGGTGACACACGCTATAGGTAC group_label=intermediate
seq_string=TCGAGTAGGTTAGTCGGGGCGTTCAGCCAACATA group_label=low
seq_string=CGAACTAGGTCATCCAGGACAGTTAATACATTGA group_label=high
seq_string=CTACCAAGGTGAACACGGTCGTTGATTACTATTC group_label=intermediate
seq_string=CTCGAACGGTCGTGCTCAGGTGAGTATACCAAAC group_label=low
seq_string=TCGCGTAGGTTACCAATGGGGCATTCAGCTTTCT group_label=low
seq_string=AGAACGAGGGCAATGAGTTGATAGCTCGGGTGGC group_label=intermediate
seq_string=GCTACTTGGTCAGTAAAAGGTCACACACCGGTCG group_label=high
seq_string=GCAGACAGGGGAAACGCAGGTAACTCAGGGTGGC group_label=low
seq_string=CCTACTCGGCCATCAGGTCATTGATATCAACGTT group_label=intermediate
seq_string=CGTCCAAGGTCAATGCTAGGTCCGTGAAAGCATT group_label=high
seq_string=GCTTGTAGATCAAGCTTAAGAAAGACTAAGCTAA group_label=low
seq_string=CCTGCTCGGTCATGGTCAGCTAATCTACAGTATG group_label=low
seq_string=TCATATAGGTAAATGCTAGGTGAAGGTCCGATCT group_label=intermediate
seq_string=TTACCAAGGTGAAAGTTCGTTGATGCACGCCTTG group_label=high
seq_string=TCAGACACGTGAAGGTAACTCAGGTACGCAGTCG group_label=intermediate
seq_string=GCAACGAGGGCATTCGAGTTGATAGCATGGCGAT group_label=low
seq_string=TCTTGTAGAGCAGCAGGTTAAGAAAGCTGGCCAA group_label=low
seq_string=AGAATGAGGTTACCAAAGATCAGGGTAACGCTTG group_label=high
seq_string=CATACAGGGTCAGCTAGGCCAGAATAGGGACGGC group_label=high
seq_string=CAAACTAGGTCACCGAGGTCAAAGTCCGTGCGTA group_label=high
seq_string=TCTTGTAGATCAAGCAGATTAAGAAAGCCTGAGT group_label=low
seq_string=TCATATAGGTAACGGTGAAAGTCGAACGATATGA group_label=intermediate
seq_string=ACTAGCAGGCCAACTTTGGGTCACTCAAACAAAG group_label=intermediate
seq_string=CTACCAAGGTGAACAAGGTCGTTGGTTACTATTC group_label=intermediate
seq_string=ACTATCAGTTGACTTAGGGCAACCGATACGACGC group_label=intermediate
seq_string=CGTCCAAGGTGAATGCTAGGTCAGTGAAAGCATT group_label=low
seq_string=TCAGACAGGTGAAGGTAAGTCAGGTACGCAGTCG group_label=intermediate
seq_string=AGAATGAGGTTCAGATCAGGGAAACAGAATACAT group_label=intermediate
seq_string=TCTGCTAGGTCAGTTGGCCAGCTAACGAGCTGCC group_label=low
seq_string=CGTCAAAGTTCAACTAAGGGAACGTAAAGCACGC group_label=high
seq_string=TCTATTAGTTGAAGGGCAACCGGCGAGTCCGTTT group_label=low
seq_string=CGTCGAAGTTCAACTAAGGTAACGTAAAGCACGC group_label=intermediate
seq_string=CTCGAAAGGTCGGTTGAGCTGAGTATACGGATAA group_label=low
seq_string=ATCTCTAGGTAATAAGTTCAGTGAAAGAGAGGAC group_label=intermediate
seq_string=AATACAGGGTCATCGTAGGCCAGAGTTCGCACAG group_label=high
seq_string=AGAACGCGGGCAATGAGTTGATAGCACGGGTGGC group_label=intermediate
seq_string=TTACCAAGGTGAGCTGAGGTCGTTGATCCAACTC group_label=low
seq_string=TCATATAGGTACAAGGTGAAAGTCGGTGTGGTAA group_label=high
seq_string=CTCGAAAGGTCGTGCTCAGGTGTGTATACCAAAC group_label=high
seq_string=CCTCGGAAGACAACAGGAGGTCAGAGCTGCCAGA group_label=low
seq_string=CCTTCCGGGTCAAGGTTATAGCACGGGTGGTACG group_label=high
seq_string=GATACAGGGTCAAGGCCTGAGTACGCGTATTGAT group_label=high
seq_string=TCTGCTAGGTCAGTTAGTCAGCTAACGAGCTGCC group_label=low
seq_string=ATATGTAGGTTATCGGGTCATCCAGTTTGCGCAT group_label=high
seq_string=CAAACTAGGTCACCGGAAGGTCAGAGTCCGCATG group_label=high
seq_string=TCATATAGGTAAATGCGAGGTGAAAGTCCGATCT group_label=intermediate
seq_string=AATACAGGGTCATCGTAGGCCAGAGCACGCACAG group_label=high
seq_string=TAGGCTAGGTCATGCGGGCCAGTATAGTGTCGGC group_label=high

---

- Tested on: LXRb homodimer (NR concentration 270 nM)
- experimental-protocol: PBM binding z-score (relative to random genomic background probes); higher = stronger binding; sequences stand for … in GC…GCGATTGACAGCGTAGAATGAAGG
Bucketed by reported PBM binding z-score, buckets being lower level = under -0.4, middle level = from -0.4 up to 0.9, upper level = 0.9 and over

seq_string=ATCTCTGGGTAAAAGTTCAGTGAATCCCGAGGAT assay_target="LXRb homodimer (NR concentration 270 nM)" group_label="upper level"
seq_string=CGTCCAAGGTCAATGCTAGGTCATTGAAAGCATT assay_target="LXRb homodimer (NR concentration 270 nM)" group_label="upper level"
seq_string=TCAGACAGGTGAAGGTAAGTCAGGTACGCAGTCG assay_target="LXRb homodimer (NR concentration 270 nM)" group_label="middle level"
seq_string=CTCGAAAGGTCGTGCTCAGGTGAGGATACCAAAC assay_target="LXRb homodimer (NR concentration 270 nM)" group_label="middle level"
seq_string=AGTCAAAGTTCACTAGGTAAAGTAAGATTCAGCT assay_target="LXRb homodimer (NR concentration 270 nM)" group_label="upper level"
seq_string=TCTTGTAGATCAACCGGAGGTTAAGAAAGATCGA assay_target="LXRb homodimer (NR concentration 270 nM)" group_label="middle level"
seq_string=CGAACGAGGGCATGAGTTGATAGCTAATGCCGAT assay_target="LXRb homodimer (NR concentration 270 nM)" group_label="lower level"
seq_string=TCTGCTAGGTCTACGATGGTCAGCTAATCTGCTA assay_target="LXRb homodimer (NR concentration 270 nM)" group_label="lower level"
seq_string=TCTTGTAGATCAGCAGGATAAGAAAGCTGGCCAA assay_target="LXRb homodimer (NR concentration 270 nM)" group_label="lower level"
seq_string=TCATGTAGATCAATAGAGGTTAAGAAAGTGCGCT assay_target="LXRb homodimer (NR concentration 270 nM)" group_label="middle level"
seq_string=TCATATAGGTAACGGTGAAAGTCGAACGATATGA assay_target="LXRb homodimer (NR concentration 270 nM)" group_label="middle level"
